tested on: human HK-2 cell; experiment: Human HK-2 cell cytotoxicity assay (in vitro nephrotoxicity); type: cell-based
Starred links: 1 amine or outer side, 2 acyl side, 3 side chain; linkers in the order of their positions; H or OH if unused. Positions of bridges follow the written chain, without caps; N, C: chain ends. Non-standard residues stand in square brackets, D forms with d. Residues, ends and D or L forms follow the SMILES beside them. ξ: configuration not given here. *: point of attachment. Thr(3ξ) = CC(O)[C@H](N)C(=O)O; Suc = O=C(CCC(=O)[*:2])[*:1]; X2 = CCCC(C)OC(=O)CCC(=O)*; Dab = NCC[C@H](N)C(=O)O

{"Compound": "CCCC(C)OC(=O)CCC(=O)N[C@@H](CCN)C(=O)N[C@H](C(=O)N[C@@H](CCN)C(=O)N[C@H]1CCNC(=O)[C@H](C(C)O)NC(=O)[C@H](CCN)NC(=O)[C@H](CCN)NC(=O)[C@H](CC(C)C)NC(=O)[C@@H](Cc2ccccc2)NC(=O)[C@H](CCN)NC1=O)C(C)O (stereo partly drawn) [Example 18] (X2-[Dab][Thr(3ξ)][Dab][Dab][Dab][dF]L[Dab][Dab][Thr(3ξ)]; lactam 4-C)", "HK-2 cytotoxicity class": "Class 4"}
{"Compound": "CC(C)C[C@@H]1NC(=O)[C@@H](Cc2ccccc2)NC(=O)[C@H](CCN)NC(=O)[C@@H](NC(=O)[C@H](CCN)NC(=O)[C@@H](N)[C@@H](C)O)CCNC(=O)[C@H]([C@@H](C)O)NC(=O)[C@H](CCN)NC(=O)[C@H](CCN)NC1=O [Reference Example 40, Polymyxin B nonapeptide, reference compound] (H-T[Dab][Dab][Dab][dF]L[Dab][Dab]T; lactam 3-C)", "HK-2 cytotoxicity class": "Class 4"}
{"Compound": "CC(C)C[C@@H]1NC(=O)[C@@H](Cc2ccccc2)NC(=O)[C@H](CCN)NC(=O)[C@@H](NC(=O)[C@H](CCN)NC(=O)[C@@H](NC(=O)[C@H](CCN)NC(=O)CCC(=O)O)C(C)O)CCNC(=O)[C@H](C(C)O)NC(=O)[C@H](CCN)NC(=O)[C@H](CCN)NC1=O (stereo partly drawn) [Example 19] (Suc-[Dab][Thr(3ξ)][Dab][Dab][Dab][dF]L[Dab][Dab][Thr(3ξ)]; lactam 4-C)", "HK-2 cytotoxicity class": "Class 4"}

* * *

Each entry below lists one item and its recorded Antibacterial activity (MIC) E. coli WECO 1003 value.
tested on: E. coli WECO 1003; assay type: cell-based, Escherichia coli; details: WECO 1003, 24 h
Starred links: 1 amine or outer side, 2 acyl side, 3 side chain; linkers in the order of their positions; H or OH if unused. Positions of bridges follow the written chain, without caps; N, C: chain ends. Non-standard residues stand in square brackets, D forms with d. Residues, ends and D or L forms follow the SMILES beside them. ξ: configuration not given here. *: point of attachment. Thr(3ξ) = CC(O)[C@H](N)C(=O)O; X10 = O=C(C1CNCCN1[*:1])[*:2]; X2 = CCCC(C)OC(=O)CCC(=O)*; Dab = NCC[C@H](N)C(=O)O; X4 = CCCCOC(=O)CCC(=O)*
Give just the number in µg/mL; leave the unit off.

{"Compound": "CCCC(C)OC(=O)CCC(=O)N1CCNCC1C(=O)N[C@H](C(=O)N[C@@H](CCN)C(=O)N[C@H]1CCNC(=O)[C@H](C(C)O)NC(=O)[C@H](CCN)NC(=O)[C@H](CCN)NC(=O)[C@H](CC(C)C)NC(=O)[C@@H](Cc2ccccc2)NC(=O)[C@H](CCN)NC1=O)C(C)O (stereo partly drawn) [Example 31] (X2-[X10][Thr(3ξ)][Dab][Dab][Dab][dF]L[Dab][Dab][Thr(3ξ)]; lactam 4-C)", "Measured": 8}
{"Compound": "CCCC(C)OC(=O)CCC(=O)N[C@@H](CCN)C(=O)N[C@H](C(=O)N[C@@H](CCN)C(=O)N[C@H]1CCNC(=O)[C@H](C(C)O)NC(=O)[C@H](CCN)NC(=O)[C@H](CCN)NC(=O)[C@H](CC(C)C)NC(=O)[C@@H](Cc2ccccc2)NC(=O)[C@H](CCN)NC1=O)C(C)O (stereo partly drawn) [Example 18] (X2-[Dab][Thr(3ξ)][Dab][Dab][Dab][dF]L[Dab][Dab][Thr(3ξ)]; lactam 4-C)", "Measured": 2}

Q: Which Antibacterial activity (MIC) E. coli WECO 1003 is reported for this compound? CCCCOC(=O)CCC(=O)N[C@@H](CCN)C(=O)N[C@H](C(=O)N[C@@H](CCN)C(=O)N[C@H]1CCNC(=O)[C@H](C(C)O)NC(=O)[C@H](CCN)NC(=O)[C@H](CCN)NC(=O)[C@H](CC(C)C)NC(=O)[C@@H](Cc2ccccc2)NC(=O)[C@H](CCN)NC1=O)C(C)O (stereo partly drawn) [Example 7] (X4-[Dab][Thr(3ξ)][Dab][Dab][Dab][dF]L[Dab][Dab][Thr(3ξ)]; lactam 4-C)
A: 4
